Measured refractive index, listed per entry for reference.
assay: refractive index (Na D-line) (dimensionless); conditions: 308.15 K; 101 kPa; Liquid; Standard Abbe refractometry
When you answer, write just the number.

Recorded refractive index, per entry:
1) CCCCn1cc[n+](C)c1.N#CN=C=[N-] [1-butyl-3-methylimidazolium dicyanamide] | 1.50578
2) CCOS(=O)(=O)[O-].CCc1cccc[n+]1CC [1,2-diethylpyridinium ethylsulfate] | 1.51067
3) CCCC[N+]1(C)CCCC1.O=S(=O)([O-])C(F)(F)F [1-butyl-1-methylpyrrolidinium trifluoromethanesulfonate] | 1.43018
4) CCCC[N+]1(C)CCCC1.N#CN=C=[N-] [1-butyl-1-methylpyrrolidinium dicyanamide] | 1.49392
5) CCCC[n+]1cccc(C)c1.O=S(=O)([O-])C(F)(F)F [1-butyl-3-methylpyridinium trifluoromethanesulfonate] | 1.45868

Exercise: GET /values?readout=refractive index&item= CCCCCCn1cc[n+](C)c1.N#CN=C=[N-] [1-hexyl-3-methylimidazolium dicyanamide]
Key: 1.501

This collection of values is drawn from the NIST ThermoML archive (doi:10.1021/je201334p).
